Quick record of pIC50 values for MAPK14 (human) (UniProt Q16539).
pIC50: −log10 of the molar value.

Structure smiles string	pIC50
CC[C@@H](C)Nc1ncc2cc(Oc3ccc(F)cc3F)c(=O)n(C[C@@H](C)O)c2n1	7.00 to 9.00
C[C@@H](O)Cn1c(=O)c(Oc2ccc(F)cc2F)cc2cnc(NC3CCC3)nc21	7.00 to 9.00
C[C@H](O)Cn1c(=O)c(Oc2ccc(F)cc2F)cc2cnc(NC3CCCC3)nc21	7.00 to 9.00
C[C@@H](O)Cn1c(=O)c(Oc2ccc(F)cc2F)cc2cnc(NC3CCOCC3)nc21	7.00 to 9.00
CNc1ncc2cc(Oc3ccc(F)cc3F)c(=O)n(C[C@@H](C)O)c2n1	7.00 to 9.00
C[C@@H](O)Cn1c(=O)c(Oc2ccc(F)cc2F)cc2cnc(NC(C)(C)CO)nc21	7.00 to 9.00
C[C@@H](O)CNc1ncc2cc(Oc3ccc(F)cc3F)c(=O)n(C[C@@H](C)O)c2n1	7.00 to 9.00
C[C@@H](O)Cn1c(=O)c(Oc2ccc(F)cc2F)cc2cnc(NC3CC3)nc21	7.00 to 9.00
CC(C)CNc1ncc2cc(Oc3ccc(F)cc3F)c(=O)n(C[C@@H](C)O)c2n1	7.00 to 9.00

Recorded values, source the Kinase Knowledgebase extract (Sharma et al. 2016).
